- measurementTarget: Thioredoxin reductase (Plasmodium falciparum 3D7, UniProt P61076)
- assayDetails: Binding affinity to Plasmodium falciparum TrxR in presence of NADPH
observable: pKi
To interpret pKi, take it as minus log10 of a concentration measured in moles per litre.

# pKi (molecule: O=[N+]([O-])c1cccc2nsnc12 ) is 6.00

----------
- measurementTarget: Thioredoxin reductase (Plasmodium falciparum 3D7)
- Sequence (P61076 whole entry): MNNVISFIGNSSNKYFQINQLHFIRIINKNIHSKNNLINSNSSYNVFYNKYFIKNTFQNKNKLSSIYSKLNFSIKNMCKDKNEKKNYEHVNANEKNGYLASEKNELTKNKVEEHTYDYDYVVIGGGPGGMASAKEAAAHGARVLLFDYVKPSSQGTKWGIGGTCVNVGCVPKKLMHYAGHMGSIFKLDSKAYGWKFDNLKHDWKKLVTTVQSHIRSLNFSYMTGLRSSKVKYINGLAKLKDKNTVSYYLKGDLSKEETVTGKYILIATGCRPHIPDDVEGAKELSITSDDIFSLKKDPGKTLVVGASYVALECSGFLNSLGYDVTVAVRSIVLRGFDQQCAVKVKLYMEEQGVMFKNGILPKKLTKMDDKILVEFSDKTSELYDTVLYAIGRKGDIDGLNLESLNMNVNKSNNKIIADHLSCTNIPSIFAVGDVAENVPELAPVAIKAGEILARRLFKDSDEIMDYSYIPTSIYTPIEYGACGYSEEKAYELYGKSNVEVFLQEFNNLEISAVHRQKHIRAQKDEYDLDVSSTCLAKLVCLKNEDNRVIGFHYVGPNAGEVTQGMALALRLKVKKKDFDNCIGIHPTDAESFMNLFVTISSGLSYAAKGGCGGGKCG
- assayDetails: Binding affinity to Plasmodium falciparum TrxR in presence of thioredoxin
observable: pKi
To interpret pKi, take it as minus log10 of a concentration measured in moles per litre.

# pKi (compound: O=[N+]([O-])c1cccc2nsnc12 ) is 6.19
